Values were extracted from patent US10696693B2.

Please go through the items and note down their pIC50.
- System: TGF-β
- ASSAY METHOD TEXT: AlphaScreen SureFire p-SMAD3 (Ser423/425) assay, TGF-β-stimulated cells
- Type: cell-based
- COND: Mus musculus, MPC-11, read-out: TGF-β: inhibition of TGF-β signaling, TGF-β pSMAD (MPC-11), p-SMAD3 (Ser423/425) AlphaScreen in cell lysate, TGF-β stimulation
pIC50: −log10 of the molar value.

Example entries begin here.
compound="O=S(=O)(Nc1cccc(-c2nc3n(c2-c2ccc4[nH]ncc4c2)CCC3)c1)c1ccccc1F [Compound 320]" result="< 6.00"
compound="Cc1c(F)ccc(-c2nc3n(c2-c2ccc4ncccc4c2)CCC3)c1C [Compound 331]" result="< 6.00"
compound="O=C(O)C1CCC2(CC1)Cc1nc(-c3ccc(F)cc3)c(-c3ccc4ncnn4c3)n1C2 (stereo not drawn) [Compound 76]" result="< 6.00"
compound="COCCOc1cnc2ccc(-c3c(-c4cc(Cl)ccc4F)nc4n3CCC4)cc2n1 [Compound 354]" result="> 7.30"
compound="Cc1c(F)ccc(-c2nc3n(c2-c2ccc4[nH]ncc4c2)CCC3)c1Cl [Compound 312]" result="< 6.00"
compound="O=C(O)C1CCC2(CC1)Cc1nc(-c3ccc(F)cc3)c(-c3ccc4nccnc4c3)n1C2 (stereo not drawn) [Compound 334]" result="< 6.00"
compound="Cc1cc(F)c(Cl)cc1-c1nc2n(c1-c1ccc3nccnc3c1)CCC2 [Compound 298]" result="< 6.00"
compound="Clc1cccc(-c2nc3n(c2-c2ccc4ncsc4c2)CCC3)c1 [Compound 191]" result="6.00 to 7.00"

Below are 4 compounds. Give each one its pIC50.
1. Fc1cccc(-c2nc3n(c2-c2ccc4ncsc4c2)CCC3)c1 [Compound 195]
2. Fc1cc(F)cc(-c2nc3n(c2-c2ccc4nccnc4c2)CCC3)c1 [Compound 233]
3. COc1cccc(-c2nc3n(c2-c2ccc4nccnc4c2)CCC3)c1 [Compound 188]
4. Fc1cccc(-c2nc3n(c2-c2ccc4[nH]ncc4c2)CCC3)c1 [Compound 193]

Outgoing:
1. 6.00 to 7.00
2. < 6.00
3. 6.00 to 7.00
4. < 6.00

Quick request: pIC50 for each listed item, please.
1. NC(=O)c1cnc2ccc(-c3c(-c4cc(F)c(F)c(F)c4)nc4n3CCC4)cn12 [Compound 53]
2. Clc1ccc(Cl)c(-c2nc3n(c2-c2ccc4ncnn4c2)CCC3)c1 [Compound 92]

Outgoing:
1. 7.00 to 7.30
2. 6.00 to 7.00

Required: pIC50, one value per compound below.
1. Clc1cccc(-c2nc3n(c2-c2ccc4cn[nH]c4c2)CCC3)c1 [Compound 190]
2. Fc1cc(Cl)c(-c2nc3n(c2-c2ccc4nccnc4c2)CCC3)cc1F [Compound 291]
3. COc1ccc(-c2nc3n(c2-c2ccc4nccnc4c2)CCC3)cc1 [Compound 351]
4. Cc1ccc(-c2ccc3nccnc3c2)cc1-c1nc2n(c1-c1ccc3nccnc3c1)CCC2 [Compound 341]

Outgoing:
["7.00 to 7.30", "6.00 to 7.00", "< 6.00", "< 6.00"]

====

Please respond with reported pIC50 for every item in the list.
- System: TGF-β
- ASSAY METHOD TEXT: AlphaScreen SureFire p-SMAD3 (Ser423/425) assay, TGF-β-stimulated cells
- Format: cell-based
- COND: Mus musculus; p-SMAD3 (Ser423/425) AlphaScreen in cell lysate; MPC-11; TGF-β stimulation; read-out: TGF-β: inhibition of TGF-β signaling, TGF-β pSMAD (MPC-11)
- Source text: The p-SMAD-3 (Ser423/425) SureFire® assay has been designed to measure the phosphorylation of endogenous cellular p-SMAD-3 (Ser423/425) in cell lysates and is a system for the screening of both modulators of receptor activation (e.g. agonists and antagonists) as well as agents acting intracellularly, such as small molecule inhibitors of upstream events. The assay will measure p-SMAD-3 (Ser423/425) activation by either cloned or endogenous receptors, and can be applied to primary cells. […]
pIC50: −log10 of the molar value.

# example entries with known answers
compound="CNCC1CCC2(CC1)Cc1nc(-c3ccc(F)cc3)c(-c3ccc4ncnn4c3)n1C2 (stereo not shown) [Compound 86]" result="< 6.00"
compound="Cc1c(F)ccc(-c2nc3n(c2-c2ccc4nccn4c2)CCC3)c1Cl [Compound 67]" result="< 6.00"
compound="Cc1ccc(-c2nc3occn3c2Br)c(F)c1 [Compound 153]" result="< 6.00"
compound="Fc1cc(F)c(-c2nc3n(c2-c2ccc4ncsc4c2)CCN3)cc1F [Compound 103]" result="> 7.30"
compound="Fc1cc(F)c(-c2nc3n(c2-c2ccc4ncccc4c2)CCN3)cc1F [Compound 107]" result="> 7.30"
compound="Cc1ccc(-c2nc3n(c2-c2ccc4ncnn4c2)CCC3)c(F)c1F [Compound 26]" result="< 6.00"

Please give pIC50 for each item listed below.
1. Cc1cc(-c2nc3n(c2-c2ccc4ncsc4c2)CCC3)c(F)cc1F [Compound 269]
2. Cc1cc(-c2nc3n(c2-c2ccc4ncnn4c2)CCC3)cc(C)c1F [Compound 42]
3. Cc1cc(-c2nc3n(c2-c2ccc4nccn4c2)CCC3)c(F)cc1Cl [Compound 29]
4. Cc1c(F)ccc(-c2nc3n(c2-c2ccc4nccn4c2)CCC3)c1F [Compound 46]
5. Fc1cc(Cl)c(-c2nc3n(c2-c2ccc4nccn4c2)CCC3)cc1F [Compound 50]
6. COCCOc1cnc2ccc(-c3c(-c4cc(F)cc(F)c4F)nc4n3CCCN4)cc2n1 [Compound 167]
7. Fc1ccc(-c2nc3occn3c2-c2ccc3[nH]ncc3c2)c(F)c1 [Compound 154]

Outgoing:
7.00 to 7.30
< 6.00
< 6.00
6.00 to 7.00
6.00 to 7.00
< 6.00
6.00 to 7.00

Would you mind giving pIC50 for every compound in the list below?
1. Cc1cc(F)ccc1-c1nc2n(c1-c1ccc3ncsc3c1)CCC2 [Compound 293]
2. Fc1ccc(-c2nc3occn3c2-c2ccc3ncsc3c2)cc1F [Compound 135]
3. Cc1cc(-c2nc3n(c2-c2ccc4ncccc4c2)CCC3)c(F)cc1F [Compound 271]
4. c1ccc(-c2nc3n(c2-c2ccc4ncccc4c2)CCC3)nc1 [Compound 369]
5. Fc1ccc(-c2nc3n(c2-c2ccc4nccnc4c2)CCC3)cc1Cl [Compound 266]

Outgoing:
1: 6.00 to 7.00; 2: 7.00 to 7.30; 3: 6.00 to 7.00; 4: 7.00 to 7.30; 5: 6.00 to 7.00

====

- Tested on: TGF-β
- ASSAY METHOD TEXT: AlphaScreen SureFire p-SMAD3 (Ser423/425) assay, TGF-β-stimulated cells
- Type: cell-based
- COND: Mus musculus, MPC-11, read-out: TGF-β: inhibition of TGF-β signaling, TGF-β pSMAD (MPC-11), p-SMAD3 (Ser423/425) AlphaScreen in cell lysate, TGF-β stimulation
MEASURED METRIC: IC50

Field: example entries. Status: answers known.
compound=Clc1ccc(Cl)c(-c2nc3n(c2-c2ccc4nccn4c2)CCC3)c1 result="50 to 100 nM"
compound=COc1ccc(-c2nc3n(c2-c2ccc4ncnn4c2)CCC3)cc1 result="> 1000 nM"
compound=Cc1cc(F)c(Cl)cc1-c1nc2n(c1-c1ccc3ncccc3c1)CCC2 result="> 1000 nM"
compound=Fc1ccc(-c2nc3n(c2-c2ccc4ncnn4c2)CC2(CCCC2)C3)cc1 result="> 1000 nM"

Need IC50 for each of these compounds.
1. Fc1cc(F)cc(-c2nc3n(c2-c2ccc4ncsc4c2)CCC3)c1
2. Fc1cc(Cl)c(-c2nc3n(c2-c2ccc4[nH]ncc4c2)CCC3)cc1F
3. Fc1cc(F)cc(-c2nc3n(c2-c2ccc4ncccc4c2)CCC3)c1
4. Fc1cc(F)cc(-c2nc3n(c2-c2ccc4[nH]ncc4c2)CCC3)c1

Outgoing:
1. > 1000 nM
2. > 1000 nM
3. > 1000 nM
4. > 1000 nM

====

- System: TGF-β
- ASSAY METHOD TEXT: AlphaScreen SureFire p-SMAD3 (Ser423/425) assay, TGF-β-stimulated cells
- Assay type: cell-based
- COND: Mus musculus; p-SMAD3 (Ser423/425) AlphaScreen in cell lysate; MPC-11; TGF-β stimulation; read-out: TGF-β: inhibition of TGF-β signaling, TGF-β pSMAD (MPC-11)
pIC50: −log10 of the molar value.
Give pIC50 for every item shown.

Past entries and their recorded results:
test_smiles=Cc1c(F)ccc(-c2nc3n(c2-c2ccc4[nH]ncc4c2)CCC3)c1F target_or_system=TGF-β measured_metric=pIC50 result="6.00 to 7.00"
test_smiles=Fc1cc(F)c(F)c(-c2nc3n(c2-c2ccc4nccnc4c2)CCN3)c1 target_or_system=TGF-β measured_metric=pIC50 result="> 7.30"
test_smiles=Fc1ccc(Cl)cc1-c1nc2n(c1-c1ccc3ncnn3c1)CCC2 target_or_system=TGF-β measured_metric=pIC50 result="> 7.30"
test_smiles=COc1c(C)cc(-c2nc3n(c2-c2ccc4ncccc4c2)CCC3)cc1C target_or_system=TGF-β measured_metric=pIC50 result="< 6.00"
test_smiles=FC(F)(F)c1cccc(-c2nc3n(c2-c2ccc4cn[nH]c4c2)CCC3)c1 target_or_system=TGF-β measured_metric=pIC50 result="6.00 to 7.00"

Please report pIC50 for every entry that follows.
1. Fc1cc(F)c(-c2nc3n(c2-c2ccc4cn[nH]c4c2)CCC3)cc1F
2. Fc1ccc(F)c(-c2nc3n(c2-c2ccc4ncsc4c2)CCC3)c1F
3. FC(F)(F)c1cccc(-c2nc3n(c2-c2ccc4nccn4c2)CCC3)c1

Outgoing:
["6.00 to 7.00", "6.00 to 7.00", "6.00 to 7.00"]

Incoming: Need pIC50 of Cc1cc(-c2nc3n(c2-c2ccc4ncnn4c2)CCC3)c(Cl)cc1F , thanks.
Outgoing: 6.00 to 7.00
